Recorded melting point, one value per entry.

compound | melting point
CCCCOc1cc(C)c(NC(=O)C(C)Br)c(C)c1 (stereo unspecified) | 132 to 134 °C
Cc1nc(N2CCN(Cc3ccc(F)cc3)C2=O)sc1-c1cc[nH]n1 | 239 to 242 °C
CC(C)(C)C1=CC(=Cc2ccc(C#N)cc2)C=C(C(C)(C)C)C1=O | 147 to 148 °C
CCCCOCc1cc(-n2nc(C(N)=O)nc2-c2ccccc2)ccc1Cl | 96 to 98 °C
NC(=O)CC[C@H](Nc1ccc(O)cc1)C(=O)O | 211 to 212 °C
COc1ccc(Cl)cc1C(=O)NC1Cc2cc(S(N)(=O)=O)c(OC)cc2OC1(C)C (stereo unspecified) | 228 °C
CCOC(=O)C(Cc1ccc(OCCN2CCC(C)(C)c3cc(C(=O)c4ccccc4)ccc32)cc1)Nc1ccccc1C(=O)c1ccccc1 (stereo unspecified) | 75 to 77 °C
CC(=O)N(CCCCN1CCN(c2csc3cc(F)ccc23)CC1)C(=O)C(C)C | 98 to 99 °C
CC(=O)NCCC1=C(C(C)C)Cc2ccc3nc(C)oc3c21 | 135 to 138 °C
N#Cc1cccc(C2=Nc3ccc(-c4cc(F)ccc4F)cc3NC(=O)C2)c1 | 247 °C
CC(C)OC1CCC(=O)N1 (stereo unspecified) | 68 to 71 °C
Cc1ccccc1C1CC(=O)c2c(C(F)(F)F)coc2C1 (stereo unspecified) | 105 to 107 °C
COc1cc(C=O)ccc1OCc1sc(-c2ccccc2)nc1C | 118 to 119 °C
Cc1ccc2cccc(OCC(=O)c3ccccc3)c2n1 | 70 to 71 °C
CC1(C)CC(=O)c2c(O)cc(O)cc2C1 | 115 to 116 °C
CC(C)c1ccc(C(=O)C(=O)c2ccccc2)c(C(C)C)c1OS(N)(=O)=O | 106 to 109 °C

###

givenSmiles | melting point
O=C(O)c1cn(C2CC2)c2c(F)c(N3Cc4cccc(O)c4C3)c(F)cc2c1=O | > 300 °C
NC(=O)c1c(Cl)c(-c2ccccc2)n2c1CN(S(=O)(=O)c1cccc(C(F)(F)F)c1)CC2 | 158 to 159 °C
Cc1cn(COC(CO)CO)c(=O)[nH]c1=O | 156 to 157 °C

###

molecule | melting point
COc1ccc(N2CCN(c3c(C)c(C)c4c(c3C)C(c3cccs3)C(C)(C)O4)CC2)cc1 (stereo not drawn) | 139 to 141 °C
O=c1ccn2nc(-c3ccncc3)c(-c3ccc(F)cc3)c2[nH]1 | 298 to 299 °C
O=C1N(Cc2nsc(Cl)n2)c2cccc(Cl)c2C12COc1cc3c(cc12)OCO3 (stereo not drawn) | 174 to 176 °C
CCCc1c(OCCCCCOc2ccc(Cl)cc2CCC(=O)O)ccc2c1OCCC2=O | 101 to 103 °C
COC1=NS(=O)N=C1NCCCCC#CCN1CCCCC1 (stereo not drawn) | 134 to 136 °C
COc1nccc2c([N+](=O)[O-])c(C)ccc12 | 94 °C
CCOC(=O)COc1cc2cc(CC)sc2c(Cl)c1Cl | 67 to 68 °C
COc1cccc([C@H]2O[C@H](CC(=O)N[C@H](C)C(=O)OC(C)(C)C)C(=O)N(CC(C)(C)C)c3ccc(Cl)cc32)c1OC | 127 to 128 °C
CN(C)S(=O)(=O)C=C(C(=O)C1CCCCC1)c1cccc([N+](=O)[O-])c1 | 115 to 118 °C
CCOC(=O)CNC(=O)Cn1c(-c2cccc(Cl)c2)nc2cccnc21 | 144 to 145 °C
COc1ccc(-c2nc(S(=O)c3ccncc3)[nH]c2-c2ccc(OC)cc2)cc1 (stereo not drawn) | 170 to 171 °C
CNC(=S)N(Cc1ccc(Cl)nc1)CC(F)(F)F | 98 to 100 °C
NCCCCC1Cc2ccc(C3=NNC(=O)CC3)cc2C1 (stereo not drawn) | 153 to 155 °C
CCOC(=O)Cc1c(-c2cccnc2)c2cc(CN3CCN(c4ccccc4)CC3)c(Cl)cc2oc1=O | 153 to 157 °C
O=C1N=C(c2ccc(C(=O)Cl)cc2)C(c2ccc(C(=O)Cl)cc2)O1 (stereo not drawn) | > 300 °C
CCCCCCCCCCOc1ccc(OCc2ccccc2)c(C(=O)OC)c1 | 32 to 34 °C
Cc1nc2ccc3c(c2o1)OC(CN1C2CCC1CC(O)(c1cccc(C(F)(F)F)c1)C2)CO3 (stereo not drawn) | 148 to 150 °C
COc1cc(C=CN(C)C)ccc1[N+](=O)[O-] | 57 to 58.5 °C
Cc1c[nH]c2cccc(C3CCCNC3)c12 (stereo not drawn) | 150 °C
CN(CCCO)c1ccnc(CSc2nc3ccccc3[nH]2)c1Cl | 127 to 130 °C
COc1ccc(OCC(O)CN2CCC(c3noc4cc(F)ccc34)CC2)cc1 (stereo not drawn) | 134 to 135 °C
Cc1nc2c3c(ccn2c1C)[C@@H](O)[C@@](C)(O)[C@@H](c1ccccc1)N3 | 180 °C
CC(C)(CC(=O)C(=O)Nc1ccc2c(c1)COC2=O)c1cccc(I)c1 | 160 to 161 °C
COc1ccc(N2CCN(C(=O)CC3CCCc4ccccc43)CC2)cc1 (stereo not drawn) | 133 to 134 °C
O=C(O)CCc1c(C(=O)O)[nH]c2cc(I)ccc12 | 230 to 232 °C
CCCCCC(=O)NC[C@@H]1CN2C(=O)C[C@H]2O1 (racemic) | 56 to 57 °C
Nc1cc(Oc2ccc(S(=O)(=O)c3ccc(OCc4ccccc4)c(Cl)c3)cc2Cl)c([N+](=O)[O-])cc1O | 181 to 184 °C
CNC(=O)c1ccc(Cl)cc1 | 158 to 161 °C
CC(C)n1nc(-c2sc(N)nc2-c2ccccc2F)ccc1=O | 233 to 235 °C
CC(C)(C)c1ccccc1NC(=O)OCC1(COC(=O)Nc2ccccc2C(C)(C)C)CSc2ccccc2C1=O | 62 to 68 °C
Cc1cc(Oc2ccccc2)ccc1[N+](=O)[O-] | 43 to 46 °C
CCOC(=O)N1Cc2ccccc2C2(Cc3ccccc3O2)C1 (stereo not drawn) | 65 to 75 °C
COc1cc(Sc2cc(F)cc(C3(OC)CCOCC3)c2)ccc1/C(C)=N/O | 155 °C

###

molecule | melting point
COC(=O)c1ncccc1NC(=O)C(C)CS (centres undefined) | 55 to 56 °C
CCCn1cc(C(=O)O)c(=O)c2cc(C)sc21 | 207 to 208 °C
CCOC(=O)c1cc2c(Br)c(Br)oc2nc1C(=O)OCC | 96 to 98 °C
CC(=O)NCCC1CNc2ccc3c(c21)CCCO3 (centres undefined) | 137 to 138 °C

###

reportedMetric: melting point

compound | recordedValue
Cc1cccc(NC(c2ccc(C(F)(F)F)cc2)c2ccc3cccnc3c2O)n1 (centres undefined) | 136 to 138 °C
O=C(c1cc(-c2ccncc2)c(N2CCOCC2)s1)c1ccc(Cl)cc1Cl | 180 °C
Cc1ccc(N2C(=O)CN3C(=O)CC[C@@H]32)cc1 | 149 to 150 °C
CNC(=O)NC1(C)CCCc2sccc21 (centres undefined) | 135 to 145 °C

###

reportedMetric: melting point

compound | reportedMetric | recordedValue
CCc1cc(N(C=O)c2ccccc2)cc(CC)c1N(C(N)=S)C(C)(C)C | melting point | 160 to 162 °C
CN(C)S(=O)(=O)c1ccc2c(c1)C(=O)c1cc(Br)ccc1CC2 | melting point | 142 to 145 °C
CCOC(CCc1c(N(C(C)=O)C(C)=O)nc(NC(C)=O)[nH]c1=O)OCC | melting point | 126 to 137 °C
O=C1[C@H]2CCC[C@H]2N(C(=O)CBr)c2ccccc2N1Cc1ccccc1 (relative stereo) | melting point | 177 to 179 °C
O=c1[nH]ncc2c1c(O)nc1ccc(Cl)c(Cl)c12 | melting point | 270 °C
Cc1cc(Oc2cc(C(F)(F)F)nn2C)nc(C(=O)Nc2ccc(F)cc2)c1 | melting point | 133 °C
CN(C)CC=Cc1ccc2c(c1)CCCN2C(=O)c1ccc(-c2ccc(Cl)cc2)cc1 | melting point | 162 to 164 °C
CCC(=O)Oc1cc(OC)cc(OC)c1C(=O)C=Cc1ccc(C)o1 | melting point | 72.5 °C
CNc1nc(C)c(-c2nc3ccccc3c(=O)n2-c2ccccc2C)s1 | melting point | 218 to 220 °C
CCOCc1nc2c(N)nc3cc(-c4cccc(C(=O)N5CCOCC5)c4)cnc3c2n1CC(C)(C)O | melting point | 149 to 152 °C

###

Listing of recorded melting point by entry.

givenSmiles | melting point
Cc1nnc(NC(=O)C2c3ccccc3Oc3ccccc32)o1 | 261 to 263 °C
Cc1c(-c2nnn[nH]2)oc2c(c1=O)CSc1ccccc1-2 | 247 to 248 °C
CCOC(=O)C(=CN(C)c1cnsn1)C(=O)c1cc(F)c(Cl)nc1Cl | 108 to 110 °C
CC(=O)c1ccc(-n2c(-c3sc(Nc4ccccc4)nc3C)nc3ccccc3c2=O)cc1 | 271 to 273 °C
CCC(CC)N(Cc1ccc(C(=O)O)cc1)S(=O)(=O)c1ccc(C)cc1 | 86 to 88 °C
CC(=O)CSc1c([N+](=O)[O-])ccc(F)c1Cl | 91 to 92 °C
CCCN1Cc2cscc2Nc2ccccc21 | 78 to 79 °C
CCc1nn(C2CCCC2)c2c1CCN(c1ccc(OC)cc1)C2=O | 64.7 °C
c1csc(-c2cc(-c3cccs3)ncn2)c1 | 146 °C
Cn1cc(NC(=O)c2cc(NC(=O)c3cc([N+](=O)[O-])cn3C)cn2C)cc1C(=O)NCCN1CCOCC1 | > 230 °C
CN(C)C(=O)Nc1c(C(=O)c2cccc(Cl)c2)[nH]c2cc(Cl)ccc12 | 214 to 221 °C
CC1(C)C=C(c2c[nH]c(-c3ccc(F)cc3)c2-c2ccncc2)CC(C)(C)N1 | 258 to 259 °C
COc1ccc(C(=O)c2cccc(CC(=O)O)c2)cc1 | 138 to 140 °C
